- experimentalTarget: ACL (Homo sapiens (Human))
- Sequence (P53396 whole entry, species assumed): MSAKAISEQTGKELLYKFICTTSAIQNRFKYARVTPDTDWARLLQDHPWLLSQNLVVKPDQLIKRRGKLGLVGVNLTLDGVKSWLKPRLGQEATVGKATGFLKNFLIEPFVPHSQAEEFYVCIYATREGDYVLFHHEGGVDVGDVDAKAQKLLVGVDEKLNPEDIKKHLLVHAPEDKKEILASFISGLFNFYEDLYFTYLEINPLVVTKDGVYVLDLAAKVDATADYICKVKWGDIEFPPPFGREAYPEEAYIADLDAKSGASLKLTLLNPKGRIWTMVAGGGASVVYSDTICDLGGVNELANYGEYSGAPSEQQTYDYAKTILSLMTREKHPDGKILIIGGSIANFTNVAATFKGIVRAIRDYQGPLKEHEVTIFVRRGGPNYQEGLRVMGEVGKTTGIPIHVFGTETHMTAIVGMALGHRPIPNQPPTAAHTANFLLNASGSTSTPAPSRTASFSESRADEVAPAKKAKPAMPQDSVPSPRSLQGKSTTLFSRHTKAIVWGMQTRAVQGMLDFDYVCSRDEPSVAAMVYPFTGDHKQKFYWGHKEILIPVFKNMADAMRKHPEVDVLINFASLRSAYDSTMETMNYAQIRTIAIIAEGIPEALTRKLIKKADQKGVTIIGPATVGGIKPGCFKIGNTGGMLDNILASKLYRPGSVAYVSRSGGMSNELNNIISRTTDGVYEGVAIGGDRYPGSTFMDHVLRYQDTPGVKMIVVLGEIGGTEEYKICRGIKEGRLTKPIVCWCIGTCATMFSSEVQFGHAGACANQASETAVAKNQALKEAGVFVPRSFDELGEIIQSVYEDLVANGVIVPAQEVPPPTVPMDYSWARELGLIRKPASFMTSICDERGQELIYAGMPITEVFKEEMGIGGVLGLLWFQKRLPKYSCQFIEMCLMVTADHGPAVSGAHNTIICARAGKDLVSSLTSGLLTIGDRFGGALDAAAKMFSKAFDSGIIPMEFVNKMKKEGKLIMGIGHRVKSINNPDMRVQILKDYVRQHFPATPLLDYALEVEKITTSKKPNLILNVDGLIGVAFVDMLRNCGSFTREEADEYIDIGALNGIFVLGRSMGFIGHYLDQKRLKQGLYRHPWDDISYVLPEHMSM
- assayMethodText: ACLY-MDH Coupled Assay
pIC50: −log10 of the molar value.
measurementLabel: pIC50

q: Report its pIC50 with ACL (Homo sapiens (Human)) as the test system: O=S(=O)(Nc1ccoc1)c1cc(Cl)cc(Cl)c1
a: < 4.52

q: Report value: pIC50, system: ACL (Homo sapiens (Human)), compound: O=C(O)c1ccc(-c2ccccc2)cc1NS(=O)(=O)c1cccc2nonc12
a: 4.52 to 6.30

q: Give pIC50 for this entry on ACL (Homo sapiens (Human)): O=S(=O)(Nc1cc(-c2ccccc2)ccc1O)c1cc(Cl)cc(Cl)c1O
a: 6.30 to 7.30

q: Provide measured pIC50 on ACL (Homo sapiens (Human)) for O=C(c1cc(Cl)c(O)c(S(=O)(=O)Cc2cc(-c3ccccc3)c(F)cc2F)c1)N1CCCC1 please.
a: 4.52 to 6.30

q: Look up ACL (Homo sapiens (Human)) data: pIC50 of O=C(c1cc(Cl)c(O)c(S(=O)(=O)Nc2cc(-c3cccnc3)c(F)cc2F)c1)N1CCC1 , then report it.
a: 4.52 to 6.30

q: Check ACL (Homo sapiens (Human)) data and give pIC50 for O=C(c1cc(Cl)c(O)c(S(=O)(=O)Nc2cc(-c3ccccc3)c(F)cc2F)c1)N1CC[C@@H](O)C1 .
a: 6.30 to 7.30

q: Provide pIC50, recorded with ACL (Homo sapiens (Human)), of O=C(c1cc(Cl)c(O)c(S(=O)(=O)Nc2cc(C3CC3)c(F)cc2F)c1)N1CC(F)C1
a: 4.52 to 6.30

q: Find the measured pIC50 of O=C(O)c1cc(-c2ccccc2)sc1NS(=O)(=O)c1cc(Cl)cc(Cl)c1 with ACL (Homo sapiens (Human)) as test system.
a: 4.52 to 6.30

q: Recall the reported pIC50 of O=S(=O)(Nc1cc(-c2ccccc2)c(F)cc1F)c1cc(CN2CCC2)cc(Cl)c1O on ACL (Homo sapiens (Human)) and write it down.
a: 4.52 to 6.30

q: Lab note: record pIC50 of Cc1c(S(=O)(=O)Nc2cc(-c3ccccc3)ccc2C(=O)O)c2ccccc2n1C tested on ACL (Homo sapiens (Human)).
a: 4.52 to 6.30

q: Recall the reported pIC50 of CN(C(=O)c1cc(Cl)cc(Cl)c1)c1cc(-c2ccccc2)ccc1C(=O)O on ACL (Homo sapiens (Human)) and write it down.
a: 4.52 to 6.30

q: Please indicate recorded pIC50 of Cc1cc(C(=O)O)c(NS(=O)(=O)c2cc(Cl)cc(C(F)(F)F)c2)cc1-c1ccccc1 measured with ACL (Homo sapiens (Human)).
a: 4.52 to 6.30

q: Answer with pIC50 of COc1ccc(-c2ccccc2)cc1NS(=O)(=O)c1cc(-c2ncco2)cc(Cl)c1O measured for ACL (Homo sapiens (Human)).
a: 6.30 to 7.30

q: # lookup: ACL (Homo sapiens (Human)) pIC50, key = O=C(O)c1ccc(-c2ccccc2)cc1NS(=O)(=O)C1CCC1
a: 4.52 to 6.30

q: Provide measured pIC50 on ACL (Homo sapiens (Human)) for O=C(O)c1cc(F)c(-c2ccccc2)cc1NCc1cc(Cl)cc(Cl)c1 please.
a: 4.52 to 6.30

q: Find pIC50 for C[C@]1(O)CCN(C(=O)c2cc(Cl)c(O)c(S(=O)(=O)Nc3cc(-c4ccccc4)c(F)cc3F)c2)C1 on ACL (Homo sapiens (Human)) and write it down.
a: 6.30 to 7.30

q: Param request: pIC50 | system ACL (Homo sapiens (Human)) | item O=S(=O)(Nc1cc(-c2ccccc2)ccc1F)c1cc(Cl)cc(Cl)c1O
a: > 7.30

q: Look up ACL (Homo sapiens (Human)) data: pIC50 of O=C(O)COc1ccc(-c2ccccc2)cc1NS(=O)(=O)c1cc(Cl)cc(Cl)c1O , then report it.
a: 4.52 to 6.30

q: Under ACL (Homo sapiens (Human)), report pIC50 for COC(=O)c1cc(Cl)c(O)c(S(=O)(=O)Nc2ccc(F)cc2F)c1
a: 4.52 to 6.30

q: # return pIC50 of O=S(=O)(Nc1cc(Cl)cc(-c2nccs2)c1)c1cc(Cl)cc(Cl)c1O (system: ACL (Homo sapiens (Human)))
a: 4.52 to 6.30

q: Report measured pIC50 on ACL (Homo sapiens (Human)); entry: O=c1[nH]cc(Cl)cc1S(=O)(=O)Nc1cc(-c2ccccc2)c(F)cc1F
a: 6.30 to 7.30

q: Determine reported pIC50 for O=C(O)c1occc1NS(=O)(=O)c1cc(Cl)cc(Cl)c1 ; test system: ACL (Homo sapiens (Human)).
a: 4.52 to 6.30

q: Would you please give the reported pIC50 of O=C(c1cc(Cl)c(O)c(S(=O)(=O)Nc2cc(-c3ccccn3)ccc2F)c1)N1CCC1 with ACL (Homo sapiens (Human))?
a: 6.30 to 7.30

q: Provide pIC50, tested on ACL (Homo sapiens (Human)), for O=C(c1cc(Cl)c(O)c(S(=O)(=O)Nc2cc(-c3ccccc3)c(F)cc2F)c1)N1CC[C@@H](F)C1 .
a: 6.30 to 7.30

q: Report its pIC50 with ACL (Homo sapiens (Human)) as the test system: O=C(O)c1ccc(-c2ccccc2)cc1NS(=O)(=O)c1ccnn1CCc1ccccc1
a: 4.52 to 6.30

q: Look up ACL (Homo sapiens (Human)) data: pIC50 of CC(C)(C)OC(=O)COc1ccc(-c2ccccc2)cc1NS(=O)(=O)c1cc(C(=O)N2CCC2)cc(Cl)c1O , then report it.
a: 4.52 to 6.30

q: For ACL (Homo sapiens (Human)), give the measured pIC50 of the entry N#Cc1cc(Cl)cc(S(=O)(=O)Nc2cc(-c3ccccc3)ccc2F)c1O
a: 4.52 to 6.30

q: // fetch pIC50; item: N#Cc1cc(Cl)c(O)c(S(=O)(=O)Nc2cc(-c3ccccc3)ccc2F)c1 ; system: ACL (Homo sapiens (Human))
a: 6.30 to 7.30

q: Tell me pIC50 of COc1ccc(-c2ccccc2)cc1NS(=O)(=O)c1cc(Br)cc(Cl)c1O when tested on ACL (Homo sapiens (Human)).
a: 6.30 to 7.30

q: Would you please give the reported pIC50 of O=C(Oc1c(Cl)cc(C(=O)N2CCC2)cc1S(=O)(=O)Nc1cc(-c2ccccc2)c(F)cc1F)C1CC1 with ACL (Homo sapiens (Human))?
a: 6.30 to 7.30

q: Enter recorded pIC50 with ACL (Homo sapiens (Human)) for O=S(=O)(Nc1cc(-c2ccccc2)ccn1)c1cc(Cl)cc(Br)c1O here.
a: 4.52 to 6.30

q: Quote pIC50 with test system ACL (Homo sapiens (Human)) for Cc1cc(Cl)c(O)c(S(=O)(=O)Nc2cc(-c3ccccc3)c(F)cc2F)c1
a: 6.30 to 7.30

q: Provide the reported pIC50 (system: ACL (Homo sapiens (Human))) for O=C(c1cc(Cl)c(O)c(S(=O)(=O)Nc2cc(-c3ccncc3)ccc2F)c1)N1CCC1
a: 4.52 to 6.30

q: Fetch value of pIC50 on ACL (Homo sapiens (Human)) for N#Cc1cc(Cl)cc(S(=O)(=O)Nc2cc(-c3cc4ccccc4s3)c(F)cc2F)c1 .
a: < 4.52

q: # return pIC50 of O=C(O)c1ccc(-c2cc3ccccc3s2)cc1NS(=O)(=O)c1cc(Cl)cc(Cl)c1 (system: ACL (Homo sapiens (Human)))
a: 4.52 to 6.30
